I'd appreciate it if you could supply percent inhibition of TGF-beta1 mRNA relative to untreated control cells values for the items below.
test system: human TGF-beta1 mRNA; experiment: Dose-dependent confirmation of antisense inhibition of human TGF-beta1 in HuVEC cells, electroporation (Example 6); type: cell-based; conditions: 5.00 nM oligonucleotide
In the oligonucleotide strings, read from the 5' end, every base follows the letter of its sugar. An asterisk marks phosphorothioate; unmarked linkages are phosphodiester. Other units and linkages are bracketed, terminal groups are in braces. A string of capitals states the bases alone. e = 2'-O-(2-methoxyethyl) (MOE); [5mC] = 5-methylcytosine; d = 2'-deoxy (DNA)
Field format: number, assumed %, no unit text.

# get_value(readout= percent inhibition of TGF-beta1 mRNA relative to untreated control cells, system= human TGF-beta1 mRNA) for 414035 (antisense GTCCTTAAATACAGCCCCCA; sugars from the 5' end e2 d13 e5, backbone and methylation of C not given here) [compound 414035]
94

Request - read-out percent inhibition of TGF-beta1 mRNA relative to untreated control cells | tested on human TGF-beta1 mRNA | substance 414036 (antisense GTGTCCTTAAATACAGCCCC; sugars from the 5' end e2 d13 e5, backbone and methylation of C not given here) [compound 414036]
92

percent inhibition of TGF-beta1 mRNA relative to untreated control cells of 413982 (antisense GCCTCCGGCTCCCAGCGGCA; sugars from the 5' end e2 d13 e5, backbone and methylation of C not given here) [compound 413982] on human TGF-beta1 mRNA?
89

Test system human TGF-beta1 mRNA; read-out percent inhibition of TGF-beta1 mRNA relative to untreated control cells; what value for 414040 (antisense e[5mC]*eT*d[5mC]*dT*d[5mC]*dT*d[5mC]*d[5mC]*dA*dT*d[5mC]*dT*dT*dT*dA*eA*eT*eG*eG*eG) [compound 414040] ?
95

Values were extracted from patent US20110172296A1.
